Recorded Mean life extension by entry
# Test system: Mus musculus
# TEST: Mean life extension in mice bearing Trypanosoma rhodesiense, after ip administration at a dose of 0.2 mmol/kg
# Format: functional
# Set-up: unit: days
Just the number, please, no unit attached.

CCOS(=O)(=O)OCC: 0
CNNCc1ccc(C(=O)NC(C)C)cc1: 5
COS(=O)(=O)OC: 3
COc1ccc(S(=O)(=O)NN(C)S(C)(=O)=O)cc1: 4
CN(NS(=O)(=O)c1ccccc1)S(=O)(=O)c1ccccc1: 5

Provide Mean life extension value for the following molecule: COS(C)(=O)=O
1

Provide Mean life extension value for the following molecule: CN(C)/N=N/c1[nH]cnc1C(N)=O
6

Provide Mean life extension value for the following molecule: CCNNCC.Cl.Cl
0

Provide Mean life extension value for the following molecule: CN(NS(C)(=O)=O)S(C)(=O)=O
12

Provide Mean life extension value for the following molecule: O=S(=O)(NNS(=O)(=O)c1ccccc1)c1ccccc1
0

Provide Mean life extension value for the following molecule: CN(NC(=O)c1ccccc1)C(=O)c1ccccc1
0

Provide Mean life extension value for the following molecule: CNNC.Cl.Cl
4

Provide Mean life extension value for the following molecule: CN(N=O)C(N)=O
8
